- assayed system: Cyclin-dependent kinase 1/cyclin B1 (Homo sapiens, UniProt P06493)
- Sequence (P06493 whole entry): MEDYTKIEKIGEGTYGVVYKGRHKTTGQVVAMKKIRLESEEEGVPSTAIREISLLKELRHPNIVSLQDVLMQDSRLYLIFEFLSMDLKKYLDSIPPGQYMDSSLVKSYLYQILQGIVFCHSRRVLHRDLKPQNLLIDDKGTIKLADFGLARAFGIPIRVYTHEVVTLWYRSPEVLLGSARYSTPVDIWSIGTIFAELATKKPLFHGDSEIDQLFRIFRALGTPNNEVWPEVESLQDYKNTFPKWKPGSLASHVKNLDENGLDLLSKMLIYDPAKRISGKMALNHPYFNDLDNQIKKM
- Sequence (P14635 whole entry, further chain): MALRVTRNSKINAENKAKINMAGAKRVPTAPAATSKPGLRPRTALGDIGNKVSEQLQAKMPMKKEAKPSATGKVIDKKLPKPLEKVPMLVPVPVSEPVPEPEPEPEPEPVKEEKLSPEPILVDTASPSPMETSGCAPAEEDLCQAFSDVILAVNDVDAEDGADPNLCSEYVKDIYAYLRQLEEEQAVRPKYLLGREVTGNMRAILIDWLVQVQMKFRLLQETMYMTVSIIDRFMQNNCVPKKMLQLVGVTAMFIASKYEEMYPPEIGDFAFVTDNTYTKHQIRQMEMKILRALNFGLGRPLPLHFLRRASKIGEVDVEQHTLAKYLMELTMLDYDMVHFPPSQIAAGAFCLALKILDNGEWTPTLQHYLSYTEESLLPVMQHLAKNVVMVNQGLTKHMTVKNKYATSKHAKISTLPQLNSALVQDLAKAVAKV
- method description: Binding affinity to human CDK1/cyclinB1
assay endpoint: IC50

query: For the compound CN(CCc1c[nH]c2ccccc12)C(=O)c1ccc(C(C)(C)C)cc1 , report IC50.
result: > 500 µM

---
query: For the compound O=C1c2ccccc2-[n+]2ccc3c([nH]c4ccccc43)c21 [FASCAPLYSIN CHLORIDE] , report IC50.
result: > 250 µM

query: For the compound CN(CCc1c[nH]c2ccccc12)C(=O)c1ccc(Cl)cc1 , report IC50.
result: > 500 µM

query: For the compound CN(CCc1c[nH]c2ccccc12)C(=O)c1ccc(-c2ccccc2)cc1 , report IC50.
result: > 500 µM
